# run description: Half life in CD1 mouse blood at 1 mg/kg, iv administered as bolus dose measured up to 7 hrs by UPLC/MS/MS spectrometry analysis
# Format: ADME, organism-based
quantity kind: half-life (min)

molecule=C[C@H](NC(=O)CCc1nc2cccnc2n1Cc1ccc(C(F)(F)F)cc1)c1ccc(Cl)cc1 value=19.8
molecule=O=C(CCc1nc2cccnc2n1Cc1ccc(F)cc1)N[C@@H](CO)c1ccc(Cl)cc1 value=9.6
molecule="C[C@H](NC(=O)CCc1nc2cccnc2n1Cc1ccc(OC(F)(F)F)cc1)c1ccc(Cl)cc1 [CAMBRITAXESTAT]" value=60
molecule=C[C@H](NC(=O)CCc1nc2ccncc2n1Cc1ccc(OC(F)(F)F)cc1)c1ccc(Cl)cc1 value=8.4
